molecular target: prostanoid DP receptor (prostaglandin D receptor) (Homo sapiens); construct: membranes, 160,000 x g fraction; test: Radioligand binding assay using membranes from cells that express recombinant prostanoid DP receptor; conditions: membranes of HEK293(EBNA) cells expressing DP; 0.7 nM [3H]PGD2; 60 min at room temperature; n = 5; read-out: Affinity (Ki) for the prostaglandin D receptor
Sequence (Q13258 whole entry): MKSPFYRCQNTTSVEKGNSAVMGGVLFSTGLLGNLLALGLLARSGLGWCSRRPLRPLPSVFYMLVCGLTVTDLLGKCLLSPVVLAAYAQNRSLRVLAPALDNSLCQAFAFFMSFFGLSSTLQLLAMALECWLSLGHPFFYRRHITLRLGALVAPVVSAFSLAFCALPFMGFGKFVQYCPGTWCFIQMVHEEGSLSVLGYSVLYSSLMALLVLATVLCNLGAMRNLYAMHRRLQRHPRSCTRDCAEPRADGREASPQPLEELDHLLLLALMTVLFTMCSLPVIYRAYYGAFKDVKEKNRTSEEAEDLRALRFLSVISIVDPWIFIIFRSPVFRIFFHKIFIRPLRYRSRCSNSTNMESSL
MEASURED ATTRIBUTE: Ki (nM)
Note: unit nM is implicit; provide only the numeric part.

Some solved cases for reference:
COMPOUND	UNIT DESCRIPTOR	ASSAY VALUE
C[S+]([O-])c1cccc2c3c(n(Cc4ccc(Cl)cc4)c12)C(CC(=O)O)CCC3 (single isomer, unassigned) [Enantiomer of Ib, reference compound]	nM	72
C[S@+]([O-])c1cccc2c3c(n(Cc4ccc(Cl)cc4)c12)[C@@H](CC(=O)O)CCC3	nM	1.7
C[S@@+]([O-])c1cccc2c3c(n(Cc4ccc(Cl)cc4)c12)[C@@H](CC(=O)O)CCC3	nM	2.1

Exercise: Report Ki for C[S+]([O-])c1cccc2c3c(n(Cc4ccc(Cl)cc4)c12)C(CC(=O)O)CCC3 (single isomer, unassigned) [Enantiomer of Ia, reference compound] please.
Key: 119
